Source of measurements: the RNAGym collection of RNA variant scans (doi:10.7554/elife.90254)

B1: LINE1-full (parent)
chain: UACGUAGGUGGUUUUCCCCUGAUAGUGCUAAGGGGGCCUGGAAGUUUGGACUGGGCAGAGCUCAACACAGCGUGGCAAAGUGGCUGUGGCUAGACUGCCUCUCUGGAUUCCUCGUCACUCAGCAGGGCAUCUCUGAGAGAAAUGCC

variants of: B1; test: self-cleavage, relative activity (ratio to wild type); higher = more cleavage; in vitro, sequencing; the parent is a self-cleaving ribozyme
The variants listed here are annotated with their self-cleavage.
// response body must contain only the number

record sequence | self-cleavage
UACGUAGGUGGUUUUCCCCUGAUAGUGCUAAGGGAGCCUGGAAGUUUGGACUGGGCAGAGCUCAACGCAGCGUGGCAAAGUGGCUGUGGCUAGACUGCCUCUCUGGAUUCCUCGUCACUCAGCAGGGCAUCUCUGAGAGAAAUGCC [G35A A67G] | 0.22
UACGUAGGUGGUUUUCCCCUGACAGUGCUAAGGGAGCCUGGAAGUUUGGACUGGGCAGAGCUCAACACAGCGUGGCAAAGUGGCUGUGGCUAGACUGCCUCUCUGGAUUCCUCGUCACUCAGCAGGGCAUCUCUGAGAGAAAUGCC [U23C G35A] | 1.4
AACGUAGGUGGUUUUCCCCUGAUAGUGCUAAGGGGGCCUGGAAGUUUGGACUGGGCAGAGCUCAACACAGCGUGGCAAAGUGGCUGUGGCUAGACUGCCUCUCAGGAUUCCUCGUCACUCAGCAGGGCAUCUCUGAGAGAAAUGCC [U1A U104A] | 1.2
UACGUAGGUGGUUUUCCCCUGAUAGUGCUAAGGGGGCCUGGAAGUUUGGACUGGGCAGAGCUUAACACAGCGUGGCAAAGUGGCUGUGGCUAGACUGCCUCUCUGGAUUCCCCGUCACUCAGCAGGGCAUCUCUGAGAGAAAUGCC [C63U U112C] | 0.29

Let us examine a further case.
The reported value for UACGUAGGUGGUUCUCCCCUGAUAGUGCUAAGGGGGCCUGGAUGUUUGGACUGGGCAGAGCUCAACACAGCGUGGCAAAGUGGCUGUGGCUAGACUGCCUCUCUGGAUUCCUCGUCACUCAGCAGGGCAUCUCUGAGAGAAAUGCC [U14C A43U] in terms of self-cleavage is 1.15
